B1: CPEB3 Ribozyme (parent)
chain: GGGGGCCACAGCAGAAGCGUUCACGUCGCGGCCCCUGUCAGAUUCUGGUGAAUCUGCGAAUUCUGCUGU

# Variants of: B1
# assay_remarks: self-cleavage, relative activity (ratio to wild type); higher = more cleavage; co-transcriptional
Rule: self-cleavage under 0.2 gives No, otherwise Yes.

These solved cases illustrate the format of a correct answer.
C18A C34U; No
C9A G48A; Yes
C29A U62G; Yes
C6G A13C; No
G5U C6A; No

Could you verify whether the entry A10C C63G shows self-cleavage of no less than 0.2? Yes

Could you verify whether the entry G48C U69G shows self-cleavage of no less than 0.2? Yes
